Below is a list of entries, each paired with its recorded EC50 value.
- Test Target: HIV-1 IN multimerization (Human immunodeficiency virus type 1 group M subtype B)
- Construct: Full-length IN and LEDGF proteins were expressed in E. coli BL21(DE3); made in house; host or cells: E. coli BL21(DE3)
- Method: HTRF-based IN multimerization assay
- Format: binding
- Condition Notes: concentration stimulating the Multimerization Increase by 50%; HTRF; read-out: IN-multim MI50

{"Substance": "Ac-VVAAEIVAH-NH2 [Peptide 24]", "Test Target": "HIV-1 IN multimerization (Human immunodeficiency virus type 1 group M subtype B)", "EC50": "> 100 µM"}
{"Substance": "Ac-VVAKAIVAH-NH2 [Peptide 25]", "Test Target": "HIV-1 IN multimerization (Human immunodeficiency virus type 1 group M subtype B)", "EC50": "4.8 µM"}
{"Substance": "Ac-VVAKEIVAH-NH2 [Peptide 18]", "Test Target": "HIV-1 IN multimerization (Human immunodeficiency virus type 1 group M subtype B)", "EC50": "> 100 µM"}
